Task for the reader: assign each of the following compounds its reported melting point.

compound=COC(=O)c1cc(OC)ccc1N(CC#N)c1ccccc1 result="107 to 109 °C"
compound="CCN1CCCC(N2C(=O)c3ccc([N+](=O)[O-])cc3C2=O)C1 (stereo not given)" result="> 300 °C"
compound=O=S1(=O)Cc2ccc(F)cc2C(c2ccc(F)cc2)=NN1 result="196 to 200 °C"

Required: melting point, one value per compound below.
1. O=C(O)c1ccccc1OCCNC(=O)C1Cc2ccccc2N1S(=O)(=O)c1ccc(-c2cccc(C(F)(F)F)c2)cc1 (stereo not given)
2. CCCn1c(=O)c2c(nc(C=Cc3ccc(C(=O)OC)cc3OC)n2C)n(CCC)c1=O
3. Cc1nc2c(O[C@@H]3c4ccccc4C[C@H]3O)cc(C(=O)NC3CC3)cc2n1C (relative stereo)
4. COc1ccc(C(=O)c2c(-c3ccc(OCCN4CCCC4)cc3)sc3cc(OCc4ccccc4)ccc23)cc1OC
5. O=C1NC(=O)C(c2ccccc2)(c2c[nH]c3ccccc23)N1 (stereo not given)
6. O=C1C2=C(SCCO2)C(O)N1c1ccc(Cl)cn1 (stereo not given)

### Response
1: 70 °C; 2: 198 to 200 °C; 3: 148 to 149 °C; 4: 74 to 77 °C; 5: 302 to 303 °C; 6: 202 °C
